Data origin: paper PMC9317696

System: NO production in macrophage RAW 264.7 cells
Assay: Inhibition of LPS-induced NO production in RAW 264.7 macrophages (Griess)
Assay type: cell-based
Conditions: Mus musculus, RAW264.7, 24 h, read-out: NO Production (IC50, µM)
observable: IC50 (µM)
One number for each entry, in µM.

*Q* Hello, I am looking for reported IC50 with NO production in macrophage RAW 264.7 cells for CC1=C(O)C(=O)C=C2C1=CC=C1[C@@]2(C)CC[C@@]2(C)[C@@H]3C[C@](C)(C(=O)O)CC[C@]3(C)CC[C@]12C [Celastrol, celastrol, reference compound] . Could you help?
*A* 1
